The following sequences are shown together with reported self-aminoacylation values.
# System: biotinyl-Trp-oxazolone
# assay.text: self-aminoacylation, catalytic enhancement (BWO) (fold over background); higher = more active; k-Seq, kA / k0A0; sequences stand for … in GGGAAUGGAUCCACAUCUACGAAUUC…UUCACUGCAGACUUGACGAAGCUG
This sample holds only a part of the variants without activity.
reported.metric: self-aminoacylation

INSERT INTO results (sequence_input, reported_metric, result_value) VALUES
  ('CCAGACUUCAAGCAAUCGUUC [Fam1B.1 aminoacylation ribozyme variant]', 'self-aminoacylation', 0.853),
  ('AUUACCCUAGUCAUCGAGUCA [Fam2.1 aminoacylation ribozyme variant]', 'self-aminoacylation', 0.546),
  ('AUUGACCUACGUCAUCGGGUG [Fam2.2 aminoacylation ribozyme variant]', 'self-aminoacylation', 5.9),
  ('CUACUUCAAACCAUCGGACUG [Fam1A.1 aminoacylation ribozyme variant]', 'self-aminoacylation', 0.444),
  ('AUUCAACUAGGUCUUCGGGUG [Fam2.2 aminoacylation ribozyme variant]', 'self-aminoacylation', 4.34),
  ('AUUACCCUGGUCAUCGAAUUA [Fam2.1 aminoacylation ribozyme variant]', 'self-aminoacylation', 0.504),
  ('GCACACUUCAAGGAAUCGGUC [Fam1B.1 aminoacylation ribozyme variant]', 'self-aminoacylation', 4.35),
  ('AUUAACCUAGGUCAUCGGGCG [Fam2.2 aminoacylation ribozyme variant]', 'self-aminoacylation', 2.17),
  ('AAGUAUGCUAAUAGUCGCACG [Fam3.1 aminoacylation ribozyme variant]', 'self-aminoacylation', 2.03);

---

# Test system: biotinyl-Trp-oxazolone
# assay.text: self-aminoacylation, catalytic enhancement (BWO) (fold over background); higher = more active; k-Seq, kA / k0A0; sequences stand for … in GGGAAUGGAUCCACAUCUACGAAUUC…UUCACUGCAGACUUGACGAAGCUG
Variants at the floor of the assay were thinned out.
Entries get a class label from measured self-aminoacylation. See ranges: lo: < 2; med: ≥ 2 and < 5; hi: ≥ 5

INSERT INTO results (sequence_input, qualitative_label) VALUES
  ('UUAACCCUGGUCAUCGAGUGA [Fam2.1 aminoacylation ribozyme variant]', 'hi'),
  ('CGACUCCAAACAAUCGGUCUG [Fam1A.1 aminoacylation ribozyme variant]', 'med'),
  ('CCACAUUUCAAGCUAUCGGUC [Fam1B.1 aminoacylation ribozyme variant]', 'lo'),
  ('CUUCACCUAGGACAUCGGGUG [Fam2.2 aminoacylation ribozyme variant]', 'med'),
  ('UAGUUUGCUAAUCGUCGCAAG [Fam3.1 aminoacylation ribozyme variant]', 'lo'),
  ('AUUCACCUAGGUCACCGGGGG [Fam2.2 aminoacylation ribozyme variant]', 'med'),
  ('CUACUUCCACCAAUCGGUCUG [Fam1A.1 aminoacylation ribozyme variant]', 'lo'),
  ('AUGCACCGAGGUCAUCGGGUG [Fam2.2 aminoacylation ribozyme variant]', 'hi'),
  ('AAGCUUGCUAAUAGUCACAAG [Fam3.1 aminoacylation ribozyme variant]', 'lo'),
  ('AUUACACUGAUCAUCGAGUGA [Fam2.1 aminoacylation ribozyme variant]', 'hi'),
  ('AUUACCCUGGUCAUCGGGUUA [Fam2.1 aminoacylation ribozyme variant]', 'hi'),
  ('CAACUUCAAACAAUCGGUCUC [Fam1A.1 aminoacylation ribozyme variant]', 'hi'),
  ('CUAAUUCAAACAAUCGGUCUC [Fam1A.1 aminoacylation ribozyme variant]', 'med'),
  ('AAGUUUUCUAAUAGUCCCAAG [Fam3.1 aminoacylation ribozyme variant]', 'lo'),
  ('AAUCACCUAGGUCAUCGAGUG [Fam2.2 aminoacylation ribozyme variant]', 'med');

---

The following sequences are shown together with reported self-aminoacylation values.
# Tested on: biotinyl-Val-oxazolone
# assay.text: self-aminoacylation, catalytic enhancement (BVO) (fold over background); higher = more active; k-Seq, kA / k0A0; sequences stand for … in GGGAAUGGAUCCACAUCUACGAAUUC…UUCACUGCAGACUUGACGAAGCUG
This sample holds only a part of the variants without activity.
reported.metric: self-aminoacylation

INSERT INTO measurements (sequence_input, result_value) VALUES
  ('AUUCACCUAGGACAUCCGGUG [Fam2.2 aminoacylation ribozyme variant]', 6.22),
  ('AUUCACCUAGUUCAUCGUGUG [Fam2.2 aminoacylation ribozyme variant]', 1.11),
  ('AUUACCCUGGUCAGCGAGUAA [Fam2.1 aminoacylation ribozyme variant]', 1.27),
  ('AAGUUUGCUAUCAGUCGCAAG [Fam3.1 aminoacylation ribozyme variant]', 0.931),
  ('CUACUUCAAACAAUUGGUUUG [Fam1A.1 aminoacylation ribozyme variant]', 0.7),
  ('CUUACCCUGGUCAUCGCGUGA [Fam2.1 aminoacylation ribozyme variant]', 10.9),
  ('AAGUUUGCAAAUAUUCGCAAG [Fam3.1 aminoacylation ribozyme variant]', 1.03),
  ('AAGUUAGCUAAUAGUCGGAAG [Fam3.1 aminoacylation ribozyme variant]', 1.32),
  ('CGACACCUCAAGCAAUCGGUC [Fam1B.1 aminoacylation ribozyme variant]', 1.06),
  ('CCACCCUUCAAGCAAUCGGUA [Fam1B.1 aminoacylation ribozyme variant]', 1.6),
  ('CCACACUUCUAGCCAUCGGUC [Fam1B.1 aminoacylation ribozyme variant]', 1.01),
  ('CUACUGCAAAAAAUCGGUCUG [Fam1A.1 aminoacylation ribozyme variant]', 0.703),
  ('AUUACCCGGGUAAUCGAGUGA [Fam2.1 aminoacylation ribozyme variant]', 5.84),
  ('CUUCACCUAGGUCAUCGGGUG [Fam2.2 aminoacylation ribozyme variant]', 5.18),
  ('AUUCAACUAGGUCUUCGGGUG [Fam2.2 aminoacylation ribozyme variant]', 3.01),
  ('CAACUUCAAACAAACGGUCUG [Fam1A.1 aminoacylation ribozyme variant]', 0.946),
  ('AUUCACCUAGGUGAUCGGGGG [Fam2.2 aminoacylation ribozyme variant]', 4.72),
  ('ACGUUUGCUAAUAGUCUCAAG [Fam3.1 aminoacylation ribozyme variant]', 1.13),
  ('UUUCACCUAGGUGAUCGGGUG [Fam2.2 aminoacylation ribozyme variant]', 3.67),
  ('AUAACCCUGGUCAUCGAGCGA [Fam2.1 aminoacylation ribozyme variant]', 1.59),
  ('AAUUUUGCUAAUAGUCGUAAG [Fam3.1 aminoacylation ribozyme variant]', 1.44),
  ('AUUCACCUAGGUAAUCGGUUG [Fam2.2 aminoacylation ribozyme variant]', 0.687),
  ('AUUCCCCUAGGUCAUCGAGUG [Fam2.2 aminoacylation ribozyme variant]', 7.52),
  ('AUAACCCUGGUAAUCGAGUGA [Fam2.1 aminoacylation ribozyme variant]', 3.58),
  ('AUUACCCUGCUAAUCGAGUGA [Fam2.1 aminoacylation ribozyme variant]', 1.58),
  ('AUUCCCCUCGGUCAUCGGGUG [Fam2.2 aminoacylation ribozyme variant]', 14),
  ('CCACUCUUCAAGCAAUCGGUG [Fam1B.1 aminoacylation ribozyme variant]', 3.46),
  ('AUUACCCUGAUCCUCGAGUGA [Fam2.1 aminoacylation ribozyme variant]', 2.52),
  ('UAGUUAGCUAAUAGUCGCAAG [Fam3.1 aminoacylation ribozyme variant]', 1.52),
  ('AUUACCCUGGUCACCUAGUGA [Fam2.1 aminoacylation ribozyme variant]', 2.49),
  ('AAGUUUGCUAAUAGCCGCAUG [Fam3.1 aminoacylation ribozyme variant]', 1.1),
  ('CUACUUCAGACAAUCCGUCUG [Fam1A.1 aminoacylation ribozyme variant]', 0.826),
  ('AUUACCAUGGUCAUCGUGUGA [Fam2.1 aminoacylation ribozyme variant]', 2.2),
  ('AUUCAACUAAGUCAUCGGGUG [Fam2.2 aminoacylation ribozyme variant]', 4.13),
  ('CAACACUUCAAGCAAACGGUC [Fam1B.1 aminoacylation ribozyme variant]', 0.815);

---

# Tested on: biotinyl-Trp-oxazolone
# assay.text: self-aminoacylation, catalytic enhancement (BWO) (fold over background); higher = more active; k-Seq, kA / k0A0; sequences stand for … in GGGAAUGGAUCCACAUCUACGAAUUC…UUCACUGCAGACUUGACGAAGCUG
Variants at the floor of the assay were thinned out.
The following sequences are shown together with reported self-aminoacylation values.
reported.metric: self-aminoacylation

INSERT INTO assay_data (sequence_input, result_value) VALUES
  ('AAGUGUGCUAAUAUUCGCAAG [Fam3.1 aminoacylation ribozyme variant]', 2.22),
  ('UCACACUUCAAUCAAUCGGUC [Fam1B.1 aminoacylation ribozyme variant]', 21.3),
  ('UUACUUCAAACAAUCGGUCUU [Fam1A.1 aminoacylation ribozyme variant]', 9.31),
  ('AUGACCAUGGUCAUCGAGUGA [Fam2.1 aminoacylation ribozyme variant]', 9.59),
  ('CUACUUCGAACAAUAGGUCUG [Fam1A.1 aminoacylation ribozyme variant]', 0.421),
  ('UAGUUUGCUAAUAAUCGCAAG [Fam3.1 aminoacylation ribozyme variant]', 0.875),
  ('UUACUUCAAACAAUCGGUCUC [Fam1A.1 aminoacylation ribozyme variant]', 17.2),
  ('CCAGGCUUCAAGCAAUCGGUC [Fam1B.1 aminoacylation ribozyme variant]', 40.8);
